experimentNotes: Microsome stability assay, human liver microsomes
Format: in vitro ADME
appliedConditions: human, human liver microsomes, pooled; 1 μM compound, 0.5 mg/mL microsomal protein, NADPH, 37° C.; read-out: Microsome Stability Human liver microsomes Cl
observable: microsomal CLint at 1 μM

Solved entries:
O=C(NC1CCCc2c(O)cccc21)c1ccc(C(F)(F)F)[nH]c1=O (centres unmarked) : < 9.6 µL/min/mg
O=C(NC1c2ccc(Cl)cc2Oc2cc(Cl)ccc21)c1ccc(C(F)(F)F)[nH]c1=O : < 9.6 µL/min/mg
CCC[C@H]1C[C@@H](NC(=O)c2ccc(C(F)(F)F)[nH]c2=O)c2cc(C)ccc2N1 : 15.3 µL/min/mg
O=C(NC(c1ccccc1)c1ccc(Oc2ccccc2)cc1)c1ccc(C(F)(F)F)[nH]c1=O (centres unmarked) : 45.2 µL/min/mg

Give one value of microsomal CLint at 1 μM per listed compound.
1. O=C(NC(c1ccccc1)c1cccc(C(F)(F)F)c1)c1ccc(C(F)(F)F)[nH]c1=O (centres unmarked)
2. CCC[C@H]1Oc2ccc(C)cc2[C@@H]1NC(=O)c1ccc(C(F)(F)F)[nH]c1=O
3. CS(=O)(=O)Nc1ccc(C(NC(=O)c2ccc(C(F)(F)F)[nH]c2=O)c2ccccc2)cc1 (centres unmarked)
4. Nc1cccc2c1CCCC2NC(=O)c1ccc(C(F)(F)F)[nH]c1=O (centres unmarked)

[out]
1: < 9.6 µL/min/mg; 2: 35.4 µL/min/mg; 3: < 9.6 µL/min/mg; 4: < 9.6 µL/min/mg
